- tgt: GST-Co-NF-kB (Capsaspora owczarzaki, UniProt F1ARL5 200-546)
- Sequence: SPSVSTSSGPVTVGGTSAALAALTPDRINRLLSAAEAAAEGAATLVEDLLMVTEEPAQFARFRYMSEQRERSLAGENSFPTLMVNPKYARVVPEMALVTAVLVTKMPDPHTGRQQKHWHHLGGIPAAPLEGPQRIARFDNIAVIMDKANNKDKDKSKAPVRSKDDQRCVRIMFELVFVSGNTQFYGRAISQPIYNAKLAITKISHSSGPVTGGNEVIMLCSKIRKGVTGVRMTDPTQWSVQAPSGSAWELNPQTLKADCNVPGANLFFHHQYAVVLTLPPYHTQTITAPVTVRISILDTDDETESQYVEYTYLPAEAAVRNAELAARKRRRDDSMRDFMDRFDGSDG
- experiment description: protein-binding microarray (PBM); PBM: ~300 nM protein, 6 mM HEPES pH 7.8, 80 mM KCl, 0.5 mM EDTA, 0.5 mM EGTA, 6% glycerol, 35 ng/ul poly-dIdC, 1% milk, 1 h, room temperature; high values mean tight binding
- assay setup: dsDNA, one strand shown
assay metric: binding signal (z-score)
Quick reminder: number only, in z-score, skip the unit.

residue string: CCGATTAACATCAGGGGGTAGAATGATGTTAATCGGGTCTTGATTCGCTTGACGCTGCTG
unit info: z-score
binding signal: 7.1
--
residue string: CCGATTAACATCAAGGAAATCCCTGATGTTAATCGGGTCTTGATTCGCTTGACGCTGCTG
unit info: z-score
binding signal: 1.77
--
residue string: CCGATTAACATCACGGGATCCCCTGATGTTAATCGGGTCTTGATTCGCTTGACGCTGCTG
unit info: z-score
binding signal: 3.23

Per the reported GST-Co-NF-kB (Capsaspora owczarzaki, UniProt F1ARL5 200-546) data, CCGATTAACATCAGGGGGAGCACTGATGTTAATCGGGTCTTGATTCGCTTGACGCTGCTG has binding signal of 6.25

# lookup: CCGATTAACATCAGGGGATTGTATGATGTTAATCGGGTCTTGATTCGCTTGACGCTGCTG on GST-Co-NF-kB (Capsaspora owczarzaki, UniProt F1ARL5 200-546), binding signal = 3.04

----------
The sequences listed here are annotated with their binding signal.
- tgt: GST-Nv-NF-kB (Ser allele) (Nematostella vectensis, UniProt A7UNT2 2-411)
- Sequence: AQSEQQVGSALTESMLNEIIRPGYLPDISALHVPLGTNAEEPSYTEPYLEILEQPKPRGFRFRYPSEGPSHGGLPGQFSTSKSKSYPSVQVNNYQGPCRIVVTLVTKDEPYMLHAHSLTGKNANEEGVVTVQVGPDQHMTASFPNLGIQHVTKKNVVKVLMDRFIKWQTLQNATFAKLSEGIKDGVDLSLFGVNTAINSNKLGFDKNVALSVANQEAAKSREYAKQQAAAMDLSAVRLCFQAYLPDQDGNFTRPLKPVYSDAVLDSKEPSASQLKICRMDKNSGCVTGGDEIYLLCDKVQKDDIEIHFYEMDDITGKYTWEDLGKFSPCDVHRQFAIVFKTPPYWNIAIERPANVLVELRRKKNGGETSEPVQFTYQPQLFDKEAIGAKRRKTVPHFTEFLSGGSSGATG
- experiment description: protein-binding microarray (PBM); PBM: ~300 nM protein, 6 mM HEPES pH 7.8, 80 mM KCl, 0.5 mM EDTA, 0.5 mM EGTA, 6% glycerol, 35 ng/ul poly-dIdC, 1% milk, 1 h, room temperature; high values mean tight binding
- assay setup: dsDNA, one strand shown
The reply should be a number in z-score, with the unit left off.

A selection of reference data follows.
residue string: CCGATTAACATCAAGTCCCCCCATGATGTTAATCGGGTCTTGATTCGCTTGACGCTGCTG
binding signal, z-score: 3.94

residue string: CCGATTAACATCATATTTTCCCATGATGTTAATCGGGTCTTGATTCGCTTGACGCTGCTG
binding signal, z-score: 5.61

residue string: CCGATTAACATCAGGACAACCCCTGATGTTAATCGGGTCTTGATTCGCTTGACGCTGCTG
binding signal, z-score: 1.17

residue string: CCGATTAACATCAAAGCTTCCCCTGATGTTAATCGGGTCTTGATTCGCTTGACGCTGCTG
binding signal, z-score: 7.74

Notebook: CCGATTAACATCACTCTTCTCGGTGATGTTAATCGGGTCTTGATTCGCTTGACGCTGCTG , binding signal read as 1.37

----------
- tgt: GST-Ap-NF-kB RHD (Exaiptasia pallida (Aiptasia), UniProt A0A913YAJ5 2-422)
- Sequence: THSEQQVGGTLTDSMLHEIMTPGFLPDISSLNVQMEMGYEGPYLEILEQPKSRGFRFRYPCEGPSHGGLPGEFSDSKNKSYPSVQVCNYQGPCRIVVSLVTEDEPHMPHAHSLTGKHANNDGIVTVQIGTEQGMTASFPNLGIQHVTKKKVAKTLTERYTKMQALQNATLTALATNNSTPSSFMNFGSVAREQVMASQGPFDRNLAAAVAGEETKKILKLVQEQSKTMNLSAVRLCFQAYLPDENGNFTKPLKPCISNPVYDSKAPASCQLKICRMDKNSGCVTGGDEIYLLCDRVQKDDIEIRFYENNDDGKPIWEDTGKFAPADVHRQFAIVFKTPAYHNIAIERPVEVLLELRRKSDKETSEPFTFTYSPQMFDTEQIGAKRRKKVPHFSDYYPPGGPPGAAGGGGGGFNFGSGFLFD
- experiment description: protein-binding microarray (PBM); PBM: ~300 nM protein, 6 mM HEPES pH 7.8, 80 mM KCl, 0.5 mM EDTA, 0.5 mM EGTA, 6% glycerol, 35 ng/ul poly-dIdC, 1% milk, 1 h, room temperature; high values mean tight binding
- assay setup: dsDNA, one strand shown
Binary label based on binding signal with cut-off 5 z-score: below gives Y, not below gives N.

The examples below pair each entry with its known result.
residue string: CCGATTAACATCAAAAACTCCCTTGATGTTAATCGGGTCTTGATTCGCTTGACGCTGCTG
classification: N
//
residue string: CCGATTAACATCACCCCACCCCCTGATGTTAATCGGGTCTTGATTCGCTTGACGCTGCTG
classification: Y
//
residue string: CCGATTAACATCAAAAACCACCCTGATGTTAATCGGGTCTTGATTCGCTTGACGCTGCTG
classification: Y
//
residue string: CCGATTAACATCAACGAATCCCCTGATGTTAATCGGGTCTTGATTCGCTTGACGCTGCTG
classification: N

Hello, I'm reviewing records and need to know if binding signal of CCGATTAACATCAGGGGGTTGACTGATGTTAATCGGGTCTTGATTCGCTTGACGCTGCTG is below 5 z-score. Could you check?
Y

Take the sequence CCGATTAACATCAGGGATTTACCTGATGTTAATCGGGTCTTGATTCGCTTGACGCTGCTG and say whether its binding signal is less than 5 z-score.
Y

hey, is binding signal for CCGATTAACATCAAAATCACCCCTGATGTTAATCGGGTCTTGATTCGCTTGACGCTGCTG lower than 5 z-score or not?
Y

Check if binding signal falls below 5 z-score for CCGATTAACATCAGGGAAGTACATGATGTTAATCGGGTCTTGATTCGCTTGACGCTGCTG .
Y

is_below(binding signal, 5 z-score) for CCGATTAACATCAGGGGAATGCATGATGTTAATCGGGTCTTGATTCGCTTGACGCTGCTG ?
N

----------
- tgt: GST-Nv-NF-kB (Ser allele) (Nematostella vectensis, UniProt A7UNT2 2-411)
- Sequence: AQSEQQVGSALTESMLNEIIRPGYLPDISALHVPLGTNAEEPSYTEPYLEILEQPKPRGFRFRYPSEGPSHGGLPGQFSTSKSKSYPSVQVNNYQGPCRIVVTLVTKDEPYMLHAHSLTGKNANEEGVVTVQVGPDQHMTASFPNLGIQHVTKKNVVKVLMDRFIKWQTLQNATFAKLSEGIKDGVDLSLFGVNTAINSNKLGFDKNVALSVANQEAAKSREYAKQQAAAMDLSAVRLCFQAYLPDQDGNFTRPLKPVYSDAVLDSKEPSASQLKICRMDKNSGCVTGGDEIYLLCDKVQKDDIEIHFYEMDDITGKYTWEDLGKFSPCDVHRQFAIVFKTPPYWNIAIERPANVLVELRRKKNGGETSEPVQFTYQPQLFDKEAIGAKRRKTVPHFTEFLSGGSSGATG
- experiment description: protein-binding microarray (PBM); PBM: ~300 nM protein, 6 mM HEPES pH 7.8, 80 mM KCl, 0.5 mM EDTA, 0.5 mM EGTA, 6% glycerol, 35 ng/ul poly-dIdC, 1% milk, 1 h, room temperature; Ap Aiptasia and Nv Nematostella (sea anemones) / Co Capsaspora / Aq Amphimedon (sponge) / Dm Drosophila / Hu human; RHD is the Rel homology domain; high values mean tight binding
- assay setup: dsDNA, one strand shown
Each entry below carries its recorded binding signal.
Answer format: numeric, z-score implied, no suffix.

residue string: CCGATTAACATCAAAACTCCCCCTGATGTTAATCGGGTCTTGATTCGCTTGACGCTGCTG
assay metric: binding signal
measured value: 9.96
--
residue string: CCGATTAACATCAGGGGGACCCCTGATGTTAATCGGGTCTTGATTCGCTTGACGCTGCTG
assay metric: binding signal
measured value: 4.83
--
residue string: CCGATTAACATCATCCCTCCCCATGATGTTAATCGGGTCTTGATTCGCTTGACGCTGCTG
assay metric: binding signal
measured value: 2.58
--
residue string: CCGATTAACATCAGCATCCCCCCTGATGTTAATCGGGTCTTGATTCGCTTGACGCTGCTG
assay metric: binding signal
measured value: 4.67
--
residue string: CCGATTAACATCAGGGGAGGGAATGATGTTAATCGGGTCTTGATTCGCTTGACGCTGCTG
assay metric: binding signal
measured value: 5.03

Lab note: measured binding signal of CCGATTAACATCAAACTTCCCCTTGATGTTAATCGGGTCTTGATTCGCTTGACGCTGCTG was 9.81

Memo: CCGATTAACATCACCTTTTTCCCTGATGTTAATCGGGTCTTGATTCGCTTGACGCTGCTG , reported binding signal: 6.24

Given item CCGATTAACATCAAGGGGAATCCTGATGTTAATCGGGTCTTGATTCGCTTGACGCTGCTG , the value recorded as its binding signal is 10

Quick note, binding signal for CCGATTAACATCAAATCCCCCCGTGATGTTAATCGGGTCTTGATTCGCTTGACGCTGCTG landed at 6.8
